# Assay overview: NCI Yeast Anticancer Drug Screen. Data for the rad50 strain (AID 155);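 further: 0% = growth of vehicle-only cultures of the same strain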
# Measurement conditions: S. cerevisiae rad50 strain growth inhibition; at 50.0 µM; hits give high values
The panel holds about 79,000 compounds, 15% with a hit somewhere; the sample as a whole holds those more often.
Result type: growth inhibition (%)
Write the answer as a number in %, unit excluded.

Q. Quick one: growth inhibition of COc1ccc2oc(-c3ccc(Cl)cc3)c(N3CCN(C)CC3)c2c1 ?
A. 56.3

Q. Quick one: growth inhibition of CCC(NC(C)c1ccccc1)C(=O)c1ccc(OCc2ccccc2)c(OCc2ccccc2)c1 (configuration not stated) ?
A. -12.7

Q. Looking for the measured growth inhibition of O=C(Nc1ccc2c(c1)Cc1c-2ccc([N+](=O)[O-])c1F)C(F)(F)F , can you help?
A. 2.95

Q. Can you look up the measured growth inhibition of Cc1ccc(N=Nc2ccc(O)c(C)c2)cc1 for me?
A. 91.2

Q. Data request, read-out growth inhibition, for O=c1[nH]cc(/C=N\Nc2ccccc2)c(=O)[nH]1
A. 61.9

Q. Fill in the blank: the reported growth inhibition of O=C1OC2C(O)COC2(OCc2c[nH]c3ccccc23)C1O (configuration not stated) (tested in a mixture with another compound) is ____.
A. 66.4

Q. Report growth inhibition for CN=C(N)N/N=C(\C)c1ccc2oc3ccc(/C(C)=N/NC(N)=NC)cc3c2c1 please.
A. 90

Q. Which growth inhibition value belongs to COC(=O)c1cccc(C)c1C(=O)c1c(C)cc(C)cc1C ?
A. 15.5

Q. What measured growth inhibition goes with CN(Cc1cnc2nc(N)nc(N)c2n1)c1ccc(C(=O)NC(CCC(=O)O)C(=O)O)c2ccccc12 (configuration not stated) ?
A. 81.2

Q. Fill blank: measured growth inhibition of the compound Cc1cccc2c1N=C(C(F)(F)F)CC2=O is ____.
A. 43.7

Q. Which growth inhibition value belongs to O=C1C=CC(=O)N1c1ccc(I)cc1 ?
A. 92

Q. Recorded growth inhibition for Cc1cccc(/C=N\NC(=S)N2CCCCC2)n1 , please?
A. 88.8

Q. # query: growth inhibition of entry CCCc1[nH]nc(C(N)=O)c1N=NN(C)C
A. 94.8

Q. Which growth inhibition is reported for this compound? c1ccc2c(c1)ccc1c3ccncc3ccc21
A. 97.8

Q. Name the reported growth inhibition value associated with the compound CCCCCCCCCCCCCC(=O)OC(C)CCC1CCCO1 (configuration not stated)
A. 19.4

Q. # lookup: growth inhibition of O=[N+]([O-])c1cc(S(=O)(=O)Nc2ccccc2)ccc1Cl
A. 88.5

Q. Query: growth inhibition; subject: CCOC(=O)CNC(=O)c1[nH]cnc1/N=N/N(C)C
A. 89.6

Q. Bench note: what growth inhibition did NC(N)=NCCCS(=O)(=O)Nc1ccc(Nc2c3ccccc3nc3cc([N+](=O)[O-])ccc23)cc1 show?
A. 72.9

Q. Which measured growth inhibition value corresponds to Cc1onc(-c2ccccc2Cl)c1C1=N/C(=C/c2cc(Cl)cc(Cl)c2O)C(=O)O1 ?
A. 79.3

Q. Please look up its growth inhibition: CC1=CC2C(C(C)C)CC1C1C(=O)OC(=O)C21 (configuration not stated)
A. 86.7

Q. Fill in: growth inhibition of S=c1[nH]c2c(Cl)c(Cl)c(Cl)c(Cl)c2[nH]1 is ___
A. 90

Q. Which growth inhibition value is on record for CN(NC(=O)/C(=C/c1ccc(O)cc1)NC(=O)c1ccccc1)c1ccnc2cc(Cl)ccc12 ?
A. 80.1

====

# Assay overview: NCI Yeast Anticancer Drug Screen. Data for the sgs1 strain (AID 173);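 further: 0% = growth of vehicle-only control cultures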
# Measurement conditions: S. cerevisiae sgs1 mutant, at 33.0 µM, hits give high values
Compounds without any hit were thinned out: in the full panel of roughly 79,000, 15% have a hit.
# thresholds on growth inhibition define classes: low: < 10%; mid: ≥ 10% and < 60%; high: ≥ 60%

Q. For C=C(CCCO)[C@@H]1CC[C@@](C)(O)[C@H]1C , which growth inhibition bin applies?
A. low

Q. Band assignment needed for Cc1cc(N=C2C=CC(=[N+](C)C)C=C2)c(N)cc1N please.
A. mid

Q. Tag the class for O=C(CCc1ccccc1)ON1C(=S)C(c2ccccc2)(c2ccccc2)N=C1Sc1ccccc1
A. mid

Q. Class (by measured growth inhibition) for CN(CC(=O)O)c1ccc(/C=C/c2ccnc3ccccc23)cc1
A. mid

Q. Please report the category associated with COc1ccc2oc(-c3ccc(Cl)cc3)c(N3CCN(C)CC3)c2c1 , nothing else.
A. high

Q. Lab note: sort CCCCCC(=O)c1ccc(O)cc1O into the matching growth inhibition band.
A. high

Q. Which bin should I file COc1ccc(/C(C#N)=C/c2ccc(OC)c(OC)c2)cc1 under?
A. low

Q. // return the class label for Clc1c(Cl)c(Cl)c2c(nnn2C2CCCO2)c1Cl (stereo not drawn)
A. mid

Q. Kindly identify the class of CCNc1ccc2c(c1)C(=O)N(OS(C)(=O)=O)C2=O .
A. mid

Q. Pick a category. Item: BrCc1ccccc1C(c1ccccc1)c1ccccc1
A. high

Q. Assign a bin to Nc1nc(N)c2cc(Sc3ccc4ccccc4c3)ccc2n1
A. high

Q. Please let me know in which category the item Oc1ccc(Br)cc1C=NC1CCCCC1 belongs.
A. high

Q. Which growth inhibition band matches CCCCCCCCCCCCCCCCCCNC(=S)/N=C\C1=C(O)c2ccccc2C1=O ?
A. mid

Q. Into which category would you place CC[C@@]1(OC(=O)CN(C)C)C(=O)OCc2c1cc1n(c2=O)Cc2cc3c(N)cccc3nc2-1 ?
A. mid

Q. Looking at CCN(CC)N=Nc1c(C(N)=O)n[nH]c1C , which class would you pick?
A. low

Q. Given O=C(CNS(=O)(=O)Cc1ccccc1)NNc1ccccc1 , name the class its growth inhibition places it in.
A. mid

Q. Form field 'band' for CCOC(=O)[C@]1(Br)CC[C@@]1(Br)C(=O)OCC
A. high

Q. Which bin should I file NNC(=S)Nc1cccc2ccccc12 under?
A. low

Q. Form: Item = N#Cc1sc2c(c1OC(=O)c1ccco1)c(=O)n(-c1ccccc1)c(=S)n2-c1ccccc1 ; Class = ?
A. low

Q. Exam item: assign COc1cc2c(cc1C[N+](C)(C)CSc1ccccc1)-c1ccccc1CC2 to the correct category.
A. high

Q. Class for CCOC(=O)Nc1ccc2c(c1)Cc1ccccc1-2 ?
A. low

====

# Assay overview: NCI Yeast Anticancer Drug Screen. Data for the sgs1 strain (AID 173);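 further: 0% = growth of vehicle-only control cultures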
# Measurement conditions: S. cerevisiae sgs1 mutant, at 3.7 µM, hits give high values
The panel holds about 79,000 compounds, 15% with a hit somewhere; the sample as a whole holds those more often.
Result type: growth inhibition (%)
Only the number, expressed in %, is required.

Q. I would be grateful if you could share the reported growth inhibition for CCCCCCSc1nc(COC(=O)NC)c(COC(=O)NC)n1C .
A. -3

Q. So what's the measured growth inhibition for this one? Cn1ncc2cc3c(Nc4ccc(Cl)cc4)cccc3nc21
A. -2

Q. What measured growth inhibition goes with O=C(/C=N/O)Nc1cc(Cl)c(Cl)cc1Cl ?
A. -31

Q. Please look up its growth inhibition: Cc1ccc(I)cc1N=C=S
A. 2

Q. Value lookup for growth inhibition; key = O=C(CNS(=O)(=O)Cc1ccccc1)NNc1ccccc1
A. -1

Q. Please look up its growth inhibition: N#CSC1CCCCNC1=O (configuration not stated)
A. 5

Q. Entry under review: OC(CN1CCCCC1)c1cc(Cl)c(Cl)c(Cl)c1 (configuration not stated) . Reported growth inhibition?
A. 14

Q. Quick one: growth inhibition for S=P(N1CC1)(N1CC1)N1CC1 ?
A. -4

Q. Which growth inhibition value is on record for N#C/C(=C1C=C(Br)/C(=N\O)C=C\1Cl)c1cccc2ccccc12 ?
A. 18

Q. # input compound: CN(CC(=O)O)c1ccc(/C=C/c2ccnc3ccccc23)cc1 ; wanted: its growth inhibition
A. 0

Q. Requested field: growth inhibition. Item: CCCCCCCCCCCCCCCCNC(=O)/C(=C\c1ccc(Cl)c(Cl)c1)NC(=O)c1ccccc1
A. 5

Q. # get_value(readout='growth inhibition', item= O=[N+]([O-])c1cccc2nc3ccccc3c(NCCc3cccc[n+]3[O-])c12 )
A. 75

====

For each entry below, report its growth inhibition value.
# Assay overview: NCI Yeast Anticancer Drug Screen. Data for the mlh1 strain (AID 171);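 further: 0% = growth of vehicle-treated control cultures of the same strain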
# Measurement conditions: S. cerevisiae mlh1 strain growth inhibition; at 3.7 µM; hits give high values
The panel holds about 79,000 compounds, 15% with a hit somewhere; the sample as a whole holds those more often.
Write down the numeric answer in % and omit the unit.

Q. Look up growth inhibition for this molecule: N#C/C(=C1C=C/C(=N/O)c2ccccc2/1)c1ccccc1
A. -2

Q. Field request: growth inhibition | item: N#C/C(=C/N1C(=O)/C(=C/c2ccc([N+](=O)[O-])cc2)SC1=S)c1nc2ccccc2s1
A. 6

Q. Please report the recorded growth inhibition for COc1cc(NCc2ccc3nc(N)nc(N)c3c2C)cc(OC)c1OC .
A. -6

Q. Suppose we examine the molecule O=C(O)c1[nH]c(=O)c2ccccc2c1Nc1ccccc1 ; what growth inhibition value has been reported?
A. 0

Q. // returns reported growth inhibition for input CC1=CCCC2C1(C)CCC(C)C2(C)Cc1cc(O)ccc1O (stereo unspecified)
A. 19

Q. Query (molecule): C/C(=N\NC(=S)NC1CCCC1)c1ccccn1 ; field requested: growth inhibition
A. 71

Q. Look at this molecule and give its reported growth inhibition. CN(C)CCN1C(=O)c2cccc3cc([N+](=O)[O-])cc(c23)C1=O
A. 1

Q. // growth inhibition lookup, key: Nc1nc(N)c2c(n1)CCC(S(=O)(=O)c1ccc3ccccc3c1)C2 (stereo unspecified)
A. 3

Q. Requested field: growth inhibition. Item: O=c1[nH]c2ccccc2c2nc3ccccc3n12
A. -22

Q. Consider the molecule shown here: O=C1C=CC(=O)N1c1ccc(N2C(=O)C=CC2=O)cc1 What is its recorded growth inhibition?
A. 99

Q. May I ask what growth inhibition has been recorded for c1ccc(N2N=C3N(c4ccccc4)C2N3c2ccccc2)cc1 ?
A. -22
